Target: Acetylcholinesterase (Homo sapiens) (UniProt P22303)
Sequence (P22303 whole entry, looked up): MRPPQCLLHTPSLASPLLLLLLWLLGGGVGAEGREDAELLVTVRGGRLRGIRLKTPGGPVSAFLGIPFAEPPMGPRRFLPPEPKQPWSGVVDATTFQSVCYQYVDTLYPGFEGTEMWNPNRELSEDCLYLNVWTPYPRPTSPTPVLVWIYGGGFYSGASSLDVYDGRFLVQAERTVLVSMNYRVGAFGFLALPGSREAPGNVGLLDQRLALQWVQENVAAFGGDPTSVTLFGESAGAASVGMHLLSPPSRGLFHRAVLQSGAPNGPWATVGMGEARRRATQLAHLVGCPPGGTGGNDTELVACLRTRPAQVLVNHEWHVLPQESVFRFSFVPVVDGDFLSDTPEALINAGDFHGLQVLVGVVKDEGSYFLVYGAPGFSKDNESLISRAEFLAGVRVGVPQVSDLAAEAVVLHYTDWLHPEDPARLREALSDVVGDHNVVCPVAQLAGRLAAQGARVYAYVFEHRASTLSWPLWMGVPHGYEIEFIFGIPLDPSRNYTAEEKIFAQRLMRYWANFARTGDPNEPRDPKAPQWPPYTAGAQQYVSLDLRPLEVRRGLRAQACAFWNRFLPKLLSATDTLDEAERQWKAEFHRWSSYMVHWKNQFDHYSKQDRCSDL
Test: Acetylcholinesterase (AChE) small molecule antagonists: colormetric cell-based qHTS assay (AID 1347395); also: nearly all actives have a fitted effect of over 30% in size
Conditions: SH-SY5Y cells AChE activity, colorimetric (Ellman); series mostly up to 115 µM
Results filed as inconclusive are left out. Active and inactive are the calls of the source. Calls follow the shape of the full dose curve.
// one of active, inactive, no free text

CC1(C)[C@H](C(=O)O[C@H](C#N)c2cccc(Oc3ccccc3)c2)[C@@H]1/C=C(\Cl)C(F)(F)F; inactive
CCCCCCCCCCCCCCC(Br)C(=O)O (centres undefined); inactive
CC(C)[C@H](C(=O)OC(C#N)c1cccc(Oc2ccccc2)c1)c1ccc(OC(F)F)cc1 (some centres undefined); inactive

Req: What classification did CCC(C)(C)C(=O)OC1=C(c2ccc(Cl)cc2Cl)C(=O)OC12CCCCC2 end up with in this test?
Resp: inactive

Req: What classification did CCCCOP(=O)(CCCC)OCCCC end up with in this test?
Resp: inactive

Req: What classification did N#Cc1c(-c2ccc(Cl)cc2)[nH]c(C(F)(F)F)c1Br end up with in this test?
Resp: inactive

Req: What classification did Cc1cc(C(F)(C(F)(F)F)C(F)(F)F)ccc1NC(=O)c1cccc(I)c1C(=O)NC(C)(C)CS(C)(=O)=O end up with in this test?
Resp: inactive

Req: What classification did c1cc[c]([Sb]([c]2ccccc2)[c]2ccccc2)cc1 end up with in this test?
Resp: inactive

Req: What classification did C=CC(=O)OCC(COC(=O)C=C)(COC(=O)C=C)COC(=O)C=C end up with in this test?
Resp: inactive

Req: What classification did CCOP(=S)(OCC)SCS(=O)(=O)CC end up with in this test?
Resp: active

Req: What classification did O=[N+]([O-])c1ccc(Oc2ccc(C(F)(F)F)cc2[N+](=O)[O-])cc1 end up with in this test?
Resp: inactive

Req: What classification did CNC(C)Cc1ccc2c(c1)OCO2 (centres undefined) end up with in this test?
Resp: inactive

Req: What classification did CCN(CC)c1c([N+](=O)[O-])cc(C(F)(F)F)c(N)c1[N+](=O)[O-] end up with in this test?
Resp: inactive

Req: What classification did COS(=O)(=O)c1ccc(C)cc1 end up with in this test?
Resp: inactive

Req: What classification did CCOC(=O)CC(=O)CCl end up with in this test?
Resp: inactive

Req: What classification did Clc1ccc(-c2ccc(Cl)c(Cl)c2Cl)c(Cl)c1Cl end up with in this test?
Resp: inactive

Req: What classification did FC(Cl)(Cl)Cl end up with in this test?
Resp: inactive

====

Assay: qHTS assay to identify small molecule agonists of the NFkB signaling pathway - cell viability counter screen (AID 1159515); also: nearly all actives have a fitted effect of over 55% in size
Settings: NFkB-bla ME-180 viability, CellTiter-Glo luminescence, 5 h; series mostly up to 61 µM
Results filed as inconclusive are left out. The source made the active and inactive calls. The call rests on the fitted dose curve.
// one of active, inactive, no free text

Completed entries (count: 5):
CCC(C)(C)C(=O)OC1=C(c2ccc(Cl)cc2Cl)C(=O)OC12CCCCC2; inactive
CCCCCCCCCC[N+](C)(C)CCCCCCCCCC; active
CCc1nn(C)c(C(=O)NCc2ccc(C(C)(C)C)cc2)c1Cl; active
CCCSP(=O)(OCC)SCCC; inactive
CN(C)c1ccc(N=Nc2ccccc2)cc1; inactive

Req: What classification did O=[N+]([O-])c1cc(C(F)(F)F)c(Cl)c([N+](=O)[O-])c1Cl end up with in this test?
Resp: active

Req: What classification did CC1(C)C(/C=C(\Cl)C(F)(F)F)C1C(=O)OC(C#N)c1cccc(Oc2ccccc2)c1 (configuration not stated) end up with in this test?
Resp: inactive

Req: What classification did Oc1c(Br)c(Br)c(Br)c(Br)c1Br end up with in this test?
Resp: inactive

Req: What classification did CC(C)OC(=S)S end up with in this test?
Resp: inactive

Req: What classification did Oc1ccc2ccc3cccc4ccc1c2c34 end up with in this test?
Resp: inactive

Req: What classification did Nc1ccc(Cc2ccc(N)c(Cl)c2)cc1Cl end up with in this test?
Resp: inactive

Req: What classification did CCN(CC)C(=S)[S-].CCN(CC)C(=S)[S-].[Zn+2] end up with in this test?
Resp: active

====

Molecular target: Nuclear receptor subfamily 1 group I member 3 (Homo sapiens) (UniProt Q14994)
Sequence (Q14994 whole entry, looked up): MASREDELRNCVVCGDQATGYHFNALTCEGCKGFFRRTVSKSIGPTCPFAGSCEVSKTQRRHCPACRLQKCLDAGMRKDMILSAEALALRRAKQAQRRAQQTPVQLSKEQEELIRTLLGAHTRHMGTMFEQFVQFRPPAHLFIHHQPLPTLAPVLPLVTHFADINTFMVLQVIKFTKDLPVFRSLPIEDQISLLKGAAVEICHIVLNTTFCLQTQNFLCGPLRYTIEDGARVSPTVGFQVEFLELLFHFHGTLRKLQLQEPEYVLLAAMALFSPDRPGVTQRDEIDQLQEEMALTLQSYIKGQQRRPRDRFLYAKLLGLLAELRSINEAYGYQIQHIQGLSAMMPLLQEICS
Test: qHTS assay to identify small molecule agonists of the constitutive androstane receptor (CAR) signaling pathway (AID 1224839); also: nearly all actives have a fitted effect of over 15% in size;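 as to activation: HepG2 cells stably carrying human CAR and a CYP2B6 luciferase reporter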
Conditions: HepG2 hCAR CYP2B6-luciferase, agonist mode, 24 h; series mostly up to 92.4 µM
Results filed as inconclusive are left out. Calls of active or inactive are those of the source. The call rests on the fitted dose curve; in most records, active means well fitted activation curve with a large enough effect in the repeat runs; inconclusive means weak or mixed curves; inactive means no such curve, though single readings can be large or run the other way.
// one of true (active), false (inactive), no free text

COC12CC[C@@]3(C[C@@H]1C(C)(O)C(C)(C)C)[C@H]1Cc4ccc(O)c5c4[C@@]3(CCN1CC1CC1)[C@H]2O5 (stereo partly drawn); false

Req: What classification did Clc1ccc(CCC(Cn2ccnc2)Sc2c(Cl)cccc2Cl)cc1 (stereo not drawn) end up with in this test?
Resp: true

Req: What classification did Oc1c(Br)c(Br)c(Br)c(Br)c1Br end up with in this test?
Resp: false

Req: What classification did CC(=O)/C=C/c1ccc2c(c1)OCO2 end up with in this test?
Resp: false

Req: What classification did N#CSCSC#N end up with in this test?
Resp: false

Req: What classification did COc1ccc(/C(=C/C(=O)N2CCOCC2)c2ccc(Cl)cc2)cc1OC end up with in this test?
Resp: false

Req: What classification did CCOc1cc(C(C)(C)C)ccc1C1COC(c2c(F)cccc2F)=N1 (stereo not drawn) end up with in this test?
Resp: true

Req: What classification did O=C(O)C1C2CCC(O2)C1C(=O)O (stereo not drawn) end up with in this test?
Resp: false

Req: What classification did CC(O)C#N (stereo not drawn) end up with in this test?
Resp: false

Req: What classification did O=[N+]([O-])c1ccc2ccc3cccc4ccc1c2c34 end up with in this test?
Resp: false

Req: What classification did Clc1ccc(C(Cl)(Cl)Cl)c(Cl)c1 end up with in this test?
Resp: false

Req: What classification did c1ccc2c(c1)OCC(C1=NCCN1)O2 (stereo not drawn) end up with in this test?
Resp: false

Req: What classification did CC(=O)Nc1ccc2c(c1)Cc1ccccc1-2 end up with in this test?
Resp: true

====

Experiment: qHTS assay to identify small molecule agonists of the androgen receptor (AR) signaling pathway in the presence of an antagonist - cell viability counter screen (AID 1259379);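 also: MDA-kb2 human breast cancer cells carrying an MMTV luciferase reporter; nearly all actives have a fitted effect of over 25% in size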
Conditions: MDA-kb2 viability, CellTiter-Fluor, 16 h; series mostly up to 92.4 µM
Inconclusive results are not listed. The source made the active and inactive calls. Calls follow the shape of the dose curve; as a rule, active = well fitted cell-killing curve with a large enough effect in the repeat runs; inconclusive = weak or mixed curves, or effect the other way; inactive = flat fitted curve, though single readings scatter.
Test readout: outcome

CCS(=O)(=O)c1cccnc1S(=O)(=O)NC(=O)Nc1nc(OC)cc(OC)n1; inactive
CC(c1ccc(O)cc1)c1ccc(O)cc1; inactive
COP(N)(=S)OC; inactive

====

Experiment: qHTS assay to identify small molecule agonists of the endoplasmic reticulum stress response signaling pathway - cell viability counter screen (AID 1159517); also: nearly all actives have a fitted effect of over 50% in size; also: potency is read from the fitted curve at half-maximal effect
Conditions: ESRE-bla HeLa viability, CellTiter-Glo luminescence, 5 h; series mostly up to 61 µM
Inconclusive results are not listed. Activity calls are given as the source filed them. Calls follow the shape of the full dose curve.
Test readout: Potency

A selection of reference data follows.
CC(=O)OC1(c2ccccc2)CCN(CCc2ccccc2)CC1; inactive
CC(C)CCCCCOC(=O)c1ccccc1C(=O)OCCCCCC(C)C; inactive
O=C(NC(=O)c1c(F)cccc1F)Nc1cc(Cl)c(OC(F)(F)C(F)F)c(Cl)c1; inactive
O=c1oc2ccccc2c(O)c1Cc1c(O)c2ccccc2oc1=O; inactive
O=C(CCCN1CCC2(CC1)C(=O)NCN2c1ccccc1)c1ccc(F)cc1; inactive

Now examine the next entry.
Documented Potency of CCCCCCCCCC[N+](C)(C)CCCCCCCCCC : 54.9 µM (active)

====

Assay: qHTS assay for small molecule agonists of the p53 signaling pathway (AID 651631); also: nearly all actives have a fitted effect of over 15% in size; also: potency is read from the fitted curve at half-maximal effect
Conditions: HCT-116 p53RE-bla reporter, beta-lactamase FRET ratio, 16 h; series mostly up to 73.3 µM
Excerpt: U.S. Tox21 Program National Center for Advancing Translational Sciences [NCATS] NIH Chemical Genomics Center [NCGC] U.S. Environmental Protection Agency [EPA] National Institutes of Environmental Health Sciences [NIEHS] National Toxicology Program [NTP] U.S. Food and Drug Administration [FDA] […] The activation of the reporter gene under culture conditions can be detected by fluorescence intensity. […]
Records with an inconclusive call do not appear. The source made the active and inactive calls. Calls follow the shape of the full dose curve.
Test readout: Potency

A selection of reference data follows.
CCCCCCCCCCCCCN1CC(C)OC(C)C1 (stereo not drawn); inactive
COc1cc(N)c(Cl)cc1C(=O)NC1CN2CCC1CC2 (stereo not drawn); inactive
CNC(C)Cc1ccc2c(c1)OCO2 (stereo not drawn); inactive
CC(=O)/C=C/c1ccc2c(c1)OCO2; 30.8 µM (active)
COc1cc(C=O)cc2c1[C@H](COC(N)=O)[C@]1(OC(C)=O)ON2C[C@H]2[C@@H]1N2C(C)=O; 1.54 µM (active)
CCN; inactive

Documented Potency of BrC(Br)Br : inactive

Documented Potency of CC(=O)OC1(c2ccccc2)CCN(CCc2ccccc2)CC1 : inactive
